assay: soluble on expression in E. coli; label from the status in PepcDB or PDB records
measured-endpoint: soluble on expression in E. coli

Reference set, count: 5
[[record]]
sequence = "MGSDKIHHHHHHMERMKAFLTDENFKHEINFDNDLLPYKIYQTTIANGYPDALFHWHPELEISYIYEGTAQYHIDYDYFNSQTDDIILVRPNGMHSIHPIKNKMQKAQTLLFHLDLVGYSLLDQISLRYLQPLQNSTFKLVPCIKPDMLGYQDIKNCLFAIFDIYQRQGRHFELLLKAKLQELIYLLYFHQYVLRKHSDDMYRKNEKIRELIDYIHQHYQEKLFIISLADIIGYSKTHFMTVFKQHTGTSCTDFIIQFRLSKACDLLVNSIKPILEVASEVGFTNLSNFNRQFKRYYQITPSQYRKQFKKTQK"
observed_measurement = "not soluble"

[[record]]
sequence = "MSLSIPADIASLISDKYKSAFDNGNLKFIQTETTKTKDPKTSMPYLISHMPSLIEKPERGQTPEGEDPLGKPEEELTVIPEFGGADNKAYKLLLNKFPVIPGHTLLVTNEYQHQTDALTPTDLLTAYKLLCALDNEESDKRHMVFYNSGPASGSSLDHKHLQILQMPEKFVTFQDRLCNGKEHFLPTFNTEPLQDAKVSFAHFVLPMPESEETVDEDLLAMCYISILQRALTFFQDWLNENPELKKSYNLMLTKEWICVVPRSKAFSDEMKIGFNSTGYCGMILTKNDEVFSKITEKPELINDILLECGFPNTSGQKPNEYNYEGHHHHHH"
observed_measurement = "soluble"

[[record]]
sequence = "MSLKQINIQKFITAKRIAKYSSLESYKLNILESQKYYSSLSILEVSLRNAIDFYFTERYGESWTDLLDIFKYKEISKIEEAKNFLKLKQEECTKDKIVAELNFGFCTSLFSKTYEEQMRKNNLIKIFNNLPKNKQINRAYLSRKLNNIRNFRNRIFHYEKIINKPEYLNIENDINEILEFLDKEILGFSIGLNIEGHHHHHH"
observed_measurement = "soluble"

[[record]]
sequence = "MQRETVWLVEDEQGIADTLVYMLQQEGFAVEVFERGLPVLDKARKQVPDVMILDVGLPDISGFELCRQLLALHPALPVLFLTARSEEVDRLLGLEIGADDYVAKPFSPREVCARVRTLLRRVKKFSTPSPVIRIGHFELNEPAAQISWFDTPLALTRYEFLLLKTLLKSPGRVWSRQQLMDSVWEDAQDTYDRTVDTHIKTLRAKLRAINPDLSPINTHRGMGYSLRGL"
observed_measurement = "soluble"

[[record]]
sequence = "MSLKLLIEEFIPVEEISEEAKKEKLGNAKPPIFSLHYWWARKPLITARAAVLGALISKENLPMIVGNGDLKTNLLRILRIPKDINEGPRAHTQDPPAEYLKEAIIKTWGEIPTVLDPFAGGGSIPFEALRLGCNAVAVDYNPVAYLILKETLEYPKKYGMKLILEGHHHHHH"
observed_measurement = "not soluble"


Prompt: I have this sequence here, "IKELKMSKDEIKREYKEMEGSPEIKSKRRQFHQEIQSRNMRENVKRSSVVVAAATHIAIGILYKRGETPLPLVTFKYTDAQVQTVRKIAEEEGVPILQRIPLARALYWDALVDHYIPAEQIEATAEVLRWLERQNIEKQHSEML" , and I need its recorded soluble on expression in E. coli.
Response: soluble
